- measured_on: feline IL-31
- Sequence (as listed by the source): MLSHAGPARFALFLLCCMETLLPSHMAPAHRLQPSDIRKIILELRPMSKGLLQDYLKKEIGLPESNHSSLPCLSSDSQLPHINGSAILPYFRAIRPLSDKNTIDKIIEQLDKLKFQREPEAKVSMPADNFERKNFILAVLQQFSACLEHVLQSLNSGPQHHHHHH
- assay_notes: Affinity of anti-IL-31 antibodies by surface plasmon resonance (Biacore), feline IL-31 surface
- Type: binding
- condition: IL-31 conjugated to the surface (FIG. 2)
- Procedure: The affinity with which candidate mAbs bind canine and feline IL-31 was determined using surface plasmon resonance (SPR) on a Biacore system (Biocore Life Sciences (GE Healthcare), Uppsala, Sweden). […] Chips were quenched with ethanolamine and the affinity with which all candidate mAbs bound to the immobilized IL-31 was evaluated. […] Affinity constants (KD) less than 1×10^−11M (1E-11 M) are below the lower limit of quantitation of detection for the instrument. […]

{"molecule": "Feline 15H05 1.1 FW1_3: FEL_15H05_VH1 with FEL_15H05_VL1_FW1_FW3 (antibody, V domains shown) VH: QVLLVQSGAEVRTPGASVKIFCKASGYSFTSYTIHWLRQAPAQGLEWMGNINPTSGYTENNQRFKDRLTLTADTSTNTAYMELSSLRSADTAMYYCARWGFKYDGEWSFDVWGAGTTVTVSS VL: DIQMNQSPSSLSASLGDTITVTCRASQGISIWLSWYQQKPGKVPKLLIYKASNLHIGVPPRFSGSGSGTHFTLTITSLQPEDIATYYCLQSQTYPLTFGGGTKLEIK", "affinity (KD) to feline IL-31": "good affinity"}
{"molecule": "Feline 15H05 1.1_FW1_2: FEL_15H05_VH1 with FEL_15H05_VL1_FW1_FW2 (antibody, V domains shown) VH: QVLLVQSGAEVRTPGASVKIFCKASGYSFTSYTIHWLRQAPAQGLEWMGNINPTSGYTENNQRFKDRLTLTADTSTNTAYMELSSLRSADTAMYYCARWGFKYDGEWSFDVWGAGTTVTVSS VL: DIQMNQSPSSLSASLGDTITVTCRASQGISIWLSWYQQKPGNIPKVLINKASNLHIGVPSRFSGSGSGTDFTLTISSLEPEDAATYYCLQSQTYPLTFGGGTKLEIK", "affinity (KD) to feline IL-31": "good affinity"}

The measurements presented in this section are drawn from patent US11433139B2.
